test.description: Selectivity index, ratio of GI50 for Cytotoxicity against human hTERT-BJ cells to ratio of GI50 for antiproliferative activity against human A549 cells
Assay type: toxicity, cell-based
condition.label: hTERT-BJ cells versus A549 cells, read-out: RatioGI50
readout.type: selectivity ratio

Data request, read-out selectivity ratio, for "Cc1cc(=O)oc2cc(N=C=[Se])ccc12"
≤ 14
